These data points were gathered from paper PMC3677924.

Target: T1, SX35 chimera (Drosophila melanogaster / Sciara …, UniProt P19339 1-123+=R+Q86QM9:73-287, internal_change)
T1 sequence: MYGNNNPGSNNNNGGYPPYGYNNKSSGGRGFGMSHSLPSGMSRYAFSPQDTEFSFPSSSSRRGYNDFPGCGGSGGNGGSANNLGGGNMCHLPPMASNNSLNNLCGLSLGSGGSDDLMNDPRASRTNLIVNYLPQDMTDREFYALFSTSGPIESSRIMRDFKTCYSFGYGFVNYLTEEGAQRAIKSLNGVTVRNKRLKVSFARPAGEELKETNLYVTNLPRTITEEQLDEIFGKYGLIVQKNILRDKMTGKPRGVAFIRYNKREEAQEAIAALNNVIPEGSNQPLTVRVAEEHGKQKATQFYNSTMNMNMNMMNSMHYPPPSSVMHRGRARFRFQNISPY
Assay: EMSA; Hill n=1; error 95% CI; 20 mM Hepes pH 8.0, 0.1 M KCl, 0.5 mM EDTA, 1 mM DTT, 0.05% NP40, 20% glycerol, 3 µg yeast tRNA; 5 min on ice, then 10 min at room temperature with RNA; 5% native PAGE, 0.25x TBE
Conditions: protein: recombinant; tags: GST; label: fluorescein (RNA labelling mix)
Quantity name: Kd (nM)
Express it in nM; write the number only.

q: Give Kd for the following binder: CAUGAUUAUUUUUUUUUAUUUUUUUUCGGUGA (ssRNA) [double poly(U) SXL site]
a: 900
